- Tested on: HIV-1
- testDetails: microbe, parasite or virus in culture
- condition: wild-type HIV-1 in CEM-T4 cells, p24 antigen, 7 days; 50% inhibition of replication
Recorded IC50 for the following compounds

# compound, IC50 [nM]
rows = [
    ("C=C(COP(=O)(OCC)OCC)C1CCC2(C(=O)O)CCC3(C)C(CCC4C5(C)CCC(OC(=O)CC(C)(C)C(=O)O)C(C)(C)C5CCC43C)C12 (centres unmarked) [Compound 12a]", 1000),
    ("CCOP(=O)(C=C(C)C1CCC2(C(=O)O)CCC3(C)C(CCC4C5(C)CCC(OC(=O)CC(C)(C)C(=O)O)C(C)(C)C5CCC43C)C12)OCC (centres unmarked) [Compound 13a]", 2000),
]
